- Tested on: arenavirus Tacaribe (TCRV), strain TRLV11573
- experiment-notes: microbe, parasite or virus in culture
- Assay type: cell-based, Tacaribe virus
- setup-conditions: A549
assay-metric: EC50 (nM)
One number for each entry, in nM.

Measured EC50 of NCC(=O)Nc1ccc(-n2nc(C(F)(F)F)cc2-c2ccc3c(ccc4ccccc43)c2)cc1 : 840

====

- Tested on: HIV-1 isolate NL4-3
- experiment-notes: microbe, parasite or virus in culture
- setup-conditions: Human immunodeficiency virus 1, NL43, PBMC, read-out: IC50
assay-metric: IC90 (nM)
Answers are plain numbers, in nM.

Previously resolved entries follow.
- Cc1cn([C@H]2C[C@H](N=[N+]=[N-])[C@@H](CO)O2)c(=O)[nH]c1=O: 39.6
- Cc1nnc(C(=O)NC(C)(C)c2nc(C(=O)NCc3ccc(F)cc3)c(O)c(=O)n2C)o1: 5.18

# evaluate next
Measured IC90 of COc1cc2c(cc1Cc1cccc(Cl)c1F)c(=O)c(C(=O)O)cn2[C@H](CO)C(C)C : 1.25
